Recorded remaining at 2 h, 2 µM, one value per entry.
- Assay Comment: Metabolic stability in human blood assessed as compound remaining at 2 uM after 2 hrs by LC-MS/MS method
- Type: ADME, tissue-based
- Cond: read-out: Stability
Parameter: remaining at 2 h, 2 µM (%)

>>> df
                                   molecule  measured
0  CC(C)OC(=O)[C@H](C)NP(=O)(OC[C@H]1O[C@@H](n2ccc(=O)[nH]c2=O)[C@@](F)(Cl)[C@@H]1O)Oc1ccccc1 (mixture of isomers)       103
1  CC1CC(OC(=O)C(O)c2ccccc2)CC(C)(C)N1C (configuration not stated)        19

----------
- Target Entity: Cytochrome P450 1A2 (Homo sapiens)
- Sequence (P05177 whole entry): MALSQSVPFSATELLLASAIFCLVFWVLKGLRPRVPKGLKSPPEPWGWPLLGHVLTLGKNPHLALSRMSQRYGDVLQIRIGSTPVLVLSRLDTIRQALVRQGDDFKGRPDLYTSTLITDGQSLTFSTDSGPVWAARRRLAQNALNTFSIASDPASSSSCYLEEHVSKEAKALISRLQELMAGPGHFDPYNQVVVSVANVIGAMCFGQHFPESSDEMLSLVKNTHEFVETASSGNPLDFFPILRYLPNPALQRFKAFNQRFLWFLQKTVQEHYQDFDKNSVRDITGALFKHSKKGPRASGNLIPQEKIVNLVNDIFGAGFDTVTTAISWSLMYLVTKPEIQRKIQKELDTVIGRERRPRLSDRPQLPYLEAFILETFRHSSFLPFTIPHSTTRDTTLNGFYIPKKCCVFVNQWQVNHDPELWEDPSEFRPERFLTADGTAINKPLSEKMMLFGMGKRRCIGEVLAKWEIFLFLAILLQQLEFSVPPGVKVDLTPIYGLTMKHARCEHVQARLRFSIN
Parameter: IC50

>>> print(df.to_string())
                                   compound                       target_entity  measured
0  CC(C)OC(=O)[C@H](C)N[P@](=O)(OC[C@H]1O[C@@H](n2ccc(=O)[nH]c2=O)[C@](C)(F)[C@@H]1O)Oc1ccccc1 [SOFOSBUVIR]  Cytochrome P450 1A2 (Homo sapiens)  > 100 µM
1  CC(C)OC(=O)[C@H](C)NP(=O)(OC[C@H]1O[C@@H](n2ccc(=O)[nH]c2=O)[C@@](F)(Cl)[C@@H]1O)Oc1ccccc1 (mixture of isomers)  Cytochrome P450 1A2 (Homo sapiens)  > 100 µM

----------
- System: nuclear DNA levels
- Assay Comment: Cytotoxicity against human HepG2 cells assessed as inhibition of nuclear DNA levels at 25 uM measured on day 14 by RT-PCR method relative to nuclear beta-actin DNA levels
- Assay type: cell-based
- Cond: read-out: INH
Parameter: cytotoxicity at 14 days, 25 µM (%)

In [3]: df
Out[3]:
                                   compound                       parameter  unit_symbol  measured
0  CC(C)OC(=O)[C@H](C)N[P@](=O)(OC[C@H]1O[C@@H](n2ccc(=O)[nH]c2=O)[C@](C)(F)[C@@H]1O)Oc1ccccc1 [SOFOSBUVIR]  cytotoxicity at 14 days, 25 µM            %      38.3
